The origin of these recorded values is ChEMBL document CHEMBL4732103.

Target: Indoleamine 2,3-dioxygenase 1 (Homo sapiens)
Assay: Inhibition of recombinant human IDO1 expressed in Escherichia coli BL21(DE3) assessed as effect on kynurenine level using L-tryptophan as substrate incubated for 1 hr by Ehrlich's reagent based assay
metric.name: IC50 (nM)
Give your result in nM as a bare value.

Problem: I have this compound here, "N#Cc1ccc(C(F)(F)F)c(SCC(=O)Nc2ccc(F)c(Cl)c2)n1" , and I need its recorded IC50.
Solution: 840

###

Biological target: Indoleamine 2,3-dioxygenase 1 (Homo sapiens, UniProt P14902)
Sequence (P14902 whole entry): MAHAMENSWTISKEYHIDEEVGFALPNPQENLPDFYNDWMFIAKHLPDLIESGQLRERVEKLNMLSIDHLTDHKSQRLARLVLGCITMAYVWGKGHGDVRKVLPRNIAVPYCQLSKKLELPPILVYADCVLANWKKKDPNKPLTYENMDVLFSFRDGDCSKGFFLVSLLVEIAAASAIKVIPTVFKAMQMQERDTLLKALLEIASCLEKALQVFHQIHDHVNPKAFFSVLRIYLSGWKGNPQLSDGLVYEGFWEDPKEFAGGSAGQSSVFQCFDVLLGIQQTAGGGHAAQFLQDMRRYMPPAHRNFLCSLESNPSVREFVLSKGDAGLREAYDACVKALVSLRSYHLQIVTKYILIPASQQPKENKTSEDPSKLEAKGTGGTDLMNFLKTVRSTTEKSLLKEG
Assay: Inhibition of IDO1 in human HeLa cells
Type: cell-based
metric.name: pIC50
Note: pIC50 values are expressed as the negative base-10 logarithm of concentration in M.

Problem: What pIC50 value was documented for this compound, "COC1=C(OC)C(=O)C(Nc2cccc(Br)c2)=CC1=O" ?
Solution: 4.95

###

Target: Indoleamine 2,3-dioxygenase 1 (Homo sapiens, UniProt P14902)
Experiment: Inhibition of IDO1 (unknown origin)
metric.name: pKi
Lab note: report pKi as minus log10 of the concentration in molar units, number only.

Problem: Which pKi is reported with Indoleamine 2,3-dioxygenase 1 (Homo sapiens, UniProt P14902) for this entry: "c1ccc2c(c1)[nH]c1cnccc12" ?
Solution: 3.74

###

Molecular target: Indoleamine 2,3-dioxygenase 1 (Homo sapiens)
Test: Inhibition of IDO1 in IFN-gamma stimulated human HeLa cells assessed as effect on KYN level incubated for 48 hrs by rapidfire-mass spectrometry
metric.name: pIC50
Bear in mind: pIC50 is minus log10 of a mol/L concentration; give just that figure.

Problem: I am curious: what pIC50 value has been reported for "CC(C)CN(CC(C)C)c1ccc([C@H](C)CC(=O)O)cc1NCNc1nc(C(F)(F)F)ns1" ?
Solution: 8.23

###

Target: Indoleamine 2,3-dioxygenase 1 (Homo sapiens, UniProt P14902)
Experiment: Inhibition of human His6-tagged IDO1 expressed in Escherichia coli BL21 incubated for 90 mins using L-tryptophan as substrate by fluorescence assay
metric.name: IC50 (µM)
Output spec: scalar in µM, unitless text.

Problem: May I ask what IC50 has been recorded for "O=C(CSc1nnc2scc(-c3ccccc3)n12)Nc1ccc2c(c1)OCO2" ?
Solution: 3

###

Molecular target: Indoleamine 2,3-dioxygenase 1 (Mus musculus)
Sequence (P28776 whole entry): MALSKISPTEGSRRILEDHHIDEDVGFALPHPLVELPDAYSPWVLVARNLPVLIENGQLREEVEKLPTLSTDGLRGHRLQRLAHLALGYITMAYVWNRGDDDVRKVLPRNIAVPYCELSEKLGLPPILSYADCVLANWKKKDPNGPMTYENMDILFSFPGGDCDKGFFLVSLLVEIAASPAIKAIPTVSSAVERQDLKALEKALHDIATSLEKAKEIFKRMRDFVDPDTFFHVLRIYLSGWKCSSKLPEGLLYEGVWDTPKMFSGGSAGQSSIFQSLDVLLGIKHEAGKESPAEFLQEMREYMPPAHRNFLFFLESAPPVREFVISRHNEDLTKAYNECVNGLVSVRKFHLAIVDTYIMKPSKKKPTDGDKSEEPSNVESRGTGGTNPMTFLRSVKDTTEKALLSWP
Experiment: Inhibition of mouse IDO1 expressed in mouse P1.HTR cells assessed as inhibition of Kyn production incubated for 16 hrs by HPLC analysis
metric.name: IC50 (µM)
Lab book: enter the figure in µM, no units written.

Problem: Query (compound): Cc1c(C)n(CC(O)CNc2ccccc2)c2ccccc12 (stereo unspecified) ; field requested: IC50
Solution: 11.4
